In this section, each of the compounds is paired with its reported viability, T/C.
System: 266295-075-R-J1-PDC spheroid viability;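 also: spheroids exposed to compounds for seven days before readout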
Test: Anticancer human tumor 266295-075-R-J1-PDC patient-derived head and neck squamous carcinoma cell line growth inhibition [POLQ]
Conditions: second compound 1 µM; first compound 10 µM; active compounds read low; spheroids with HUVEC and MSC
assay-endpoint: viability, T/C (%)

>>> endpoint_value("O=C(c1cc(Cc2n[nH]c(=O)c3ccccc23)ccc1F)N1CCN(C(=O)C2CC2)CC1 + Cc1cccc(N(C)C(=O)C2C(O)CCN2c2nc(C)cc(C(F)(F)F)c2C#N)c1")
85.9
>>> endpoint_value("CCc1cc2c(N3CCc4c(cc(Cn5ccnc5)cc4-c4cn(C)nc4C(F)(F)F)C3=O)ccnc2c(OC)n1 + COC1C(OC(N)=O)C(O)C(Oc2ccc3c(O)c(NC(=O)c4ccc(O)c(CC=C(C)C)c4)c(=O)oc3c2C)OC1(C)C")
127
>>> endpoint_value("CNCc1ccc(-c2[nH]c3cc(F)cc4c3c2CCNC4=O)cc1 + COC1C(OC(N)=O)C(O)C(Oc2ccc3c(O)c(NC(=O)c4ccc(O)c(CC=C(C)C)c4)c(=O)oc3c2C)OC1(C)C")
105
>>> endpoint_value("O=C(Nc1ccc(O)c(NS(=O)(=O)c2ccc(F)cc2)c1)c1ccc(-c2ccccc2)cc1 + Cc1cccc(N(C)C(=O)C2C(O)CCN2c2nc(C)cc(C(F)(F)F)c2C#N)c1")
85.5
>>> endpoint_value("CC1COCCN1c1cc(C2(S(C)(=N)=O)CC2)nc(-c2ccnc3[nH]ccc23)n1 (stereo not given) + Nc1ccc(C#CCN(C(=O)Cc2ncc(C(F)(F)F)cc2C(F)(F)F)c2ccc(F)cc2)nn1")
48.9
>>> endpoint_value("COc1cc(C2c3cc4c(cc3C(OC3OC5COC(C)OC5C(O)C3O)C3COC(=O)C23)OCO4)cc(OC)c1O (stereo not given) + Cc1cccc(N(C)C(=O)C2C(O)CCN2c2nc(C)cc(C(F)(F)F)c2C#N)c1")
68.1
>>> endpoint_value("CC1COCCN1c1cc(C2(O)CC3CCC(C2)O3)c2cnn(-c3ccn[nH]3)c2n1 (stereo not given) + Cc1cccc(N(C)C(=O)C2C(O)CCN2c2nc(C)cc(C(F)(F)F)c2C#N)c1")
26.1
>>> endpoint_value("C#Cc1c(F)ccc2cc(O)cc(-c3ncc4c(N5CC6CCC(C5)N6)nc(OCC56CCCN5CC(F)C6)nc4c3F)c12 (stereo not given) + COC1C(OC(N)=O)C(O)C(Oc2ccc3c(O)c(NC(=O)c4ccc(O)c(CC=C(C)C)c4)c(=O)oc3c2C)OC1(C)C")
56.9
>>> endpoint_value("CCCS(=O)(=O)Nc1ccc(F)c(C(=O)c2c[nH]c3ncc(-c4ccc(Cl)cc4)cc23)c1F + Cc1cccc(N(C)C(=O)C2C(O)CCN2c2nc(C)cc(C(F)(F)F)c2C#N)c1")
142
>>> endpoint_value("O=c1[nH]cc(F)c(=O)[nH]1 + COC1C(OC(N)=O)C(O)C(Oc2ccc3c(O)c(NC(=O)c4ccc(O)c(CC=C(C)C)c4)c(=O)oc3c2C)OC1(C)C")
89.9
